Quick reference for IC50 among some compounds
biological target: 5HT3a receptor expressed in HEK-293T cells (Homo sapiens (Human)); assay: Inhibition of Ca flux activity of 5HT3 in vitro assay; conditions: calcium flux, 5HT 216 nM, approximate values
Counter-ions that a name gives are not always drawn.
The response must be a number in nM with no trailing unit.

INSERT INTO results (compound, test_system, experimental_value) VALUES
  ('O=C(OC1CC2COCC(C1)N2)c1cn(-c2cnsc2)c2ccccc12 (stereo not shown) [Example 143, trifluoroacetic acid salt]', '5HT3a receptor expressed in HEK-293T cells (Homo sapiens (Human))', 0.415),
  ('CN1[C@@H]2COC[C@H]1CC(NC(=O)c1cn(-c3ncccn3)c3ccccc13)C2 (stereo partly shown) [Example 122]', '5HT3a receptor expressed in HEK-293T cells (Homo sapiens (Human))', 1.01),
  ('CN1[C@@H]2CCC[C@H]1CC(NC(=O)c1cn(S(C)(=O)=O)c3ccc(F)cc13)C2 (stereo partly shown)', '5HT3a receptor expressed in HEK-293T cells (Homo sapiens (Human))', 12.8);

Kindly review the next compound as well.
Incoming: Which measured IC50 value corresponds to CN1[C@@H]2COC[C@H]1CC(NC(=O)c1cn(-c3cccnn3)c3ccccc13)C2 (stereo partly shown) [Example 117] ?
Outgoing: 0.39

====

target: 5HT3a receptor expressed in HEK-293T cells (Homo sapiens (Human)); assay: Inhibition of Ca flux activity of 5HT3 in vitro assay; conditions: calcium flux, 5HT 216 nM, approximate values
quantity_measured: IC50 (nM)
Lab book: enter the figure in nM, no units written.

Consider the worked cases shown below.
INSERT INTO results (molecule, test_system, units_of_measure, experimental_value) VALUES
  ('CN1[C@@H]2COC[C@H]1CC(NC(=O)c1cn(CC(F)F)c3ncc(F)cc13)C2 (stereo partly shown)', '5HT3a receptor expressed in HEK-293T cells (Homo sapiens (Human))', 'nM', 1.11),
  ('CN1[C@@H]2COC[C@H]1CC(NC(=O)c1cn(-c3cccnn3)c3ccccc13)C2 (stereo partly shown) [Example 123]', '5HT3a receptor expressed in HEK-293T cells (Homo sapiens (Human))', 'nM', 0.28),
  ('CN1[C@@H]2CC[C@H]1CC(OC(=O)c1cn([C@@H]3CCOC3)c3ccccc13)C2 (stereo partly shown)', '5HT3a receptor expressed in HEK-293T cells (Homo sapiens (Human))', 'nM', 1.04);

Incoming: Fill in the blank: the reported IC50 of CN1[C@@H]2COC[C@H]1CC(NC(=O)c1cn(CCF)c3ccccc13)C2 (stereo partly shown) is ____.
Outgoing: 0.22

====

Reported pIC50 by item:
target: 5HT3a receptor expressed in HEK-293T cells (Homo sapiens (Human), UniProt P46098); assay: Inhibition of Ca flux activity of 5HT3 in vitro assay; conditions: calcium flux, 5HT 216 nM, approximate values
Sequence (P46098 24-478): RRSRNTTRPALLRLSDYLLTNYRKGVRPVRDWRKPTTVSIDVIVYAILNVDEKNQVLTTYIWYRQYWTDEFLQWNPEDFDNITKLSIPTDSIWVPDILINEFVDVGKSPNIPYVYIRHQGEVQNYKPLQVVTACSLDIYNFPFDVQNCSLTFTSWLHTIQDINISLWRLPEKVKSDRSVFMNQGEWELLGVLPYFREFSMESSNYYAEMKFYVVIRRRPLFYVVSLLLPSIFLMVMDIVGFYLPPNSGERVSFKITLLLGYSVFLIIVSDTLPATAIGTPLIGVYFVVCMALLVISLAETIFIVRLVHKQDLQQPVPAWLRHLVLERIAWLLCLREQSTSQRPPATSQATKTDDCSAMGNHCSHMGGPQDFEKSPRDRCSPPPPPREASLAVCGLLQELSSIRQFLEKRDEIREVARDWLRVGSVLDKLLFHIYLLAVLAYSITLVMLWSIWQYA
Where a name gives a salt, the structure may show the parent alone.
# log scale: pIC50 equals minus log10 of the concentration in mol/L

INSERT INTO results (molecule, quantity_measured, experimental_value) VALUES
  ('O=C(O[C@H]1C[C@H]2COC[C@@H](C1)N2)c1cn(-c2ncco2)c2ccccc12 [Example 177, trifluoroacetic acid salt]', 'pIC50', 8.49),
  ('O=C(OC1C[C@H]2COC[C@@H](C1)N2)c1cn(CC(F)F)c2ccc(F)cc12 (stereo partly shown) [Example 31]', 'pIC50', 8.89),
  ('CN1C2COCC1CC(NC(=O)c1cn(-c3ccccc3)c3ccccc13)C2 (stereo not shown) [Example 174]', 'pIC50', 8.69);

Incoming: Value lookup for pIC50; key = CN1[C@@H]2CC[C@H]1CC(OC(=O)c1cn(CC(F)F)c3ncccc13)C2 (stereo partly shown) [Example 72]
Outgoing: 8.44
